Sourced from patent US20040067531A1

# MEASURED_ON: FLK-1 receptor (Mus musculus, UniProt P35918)
# Sequence (P35918 20-1345): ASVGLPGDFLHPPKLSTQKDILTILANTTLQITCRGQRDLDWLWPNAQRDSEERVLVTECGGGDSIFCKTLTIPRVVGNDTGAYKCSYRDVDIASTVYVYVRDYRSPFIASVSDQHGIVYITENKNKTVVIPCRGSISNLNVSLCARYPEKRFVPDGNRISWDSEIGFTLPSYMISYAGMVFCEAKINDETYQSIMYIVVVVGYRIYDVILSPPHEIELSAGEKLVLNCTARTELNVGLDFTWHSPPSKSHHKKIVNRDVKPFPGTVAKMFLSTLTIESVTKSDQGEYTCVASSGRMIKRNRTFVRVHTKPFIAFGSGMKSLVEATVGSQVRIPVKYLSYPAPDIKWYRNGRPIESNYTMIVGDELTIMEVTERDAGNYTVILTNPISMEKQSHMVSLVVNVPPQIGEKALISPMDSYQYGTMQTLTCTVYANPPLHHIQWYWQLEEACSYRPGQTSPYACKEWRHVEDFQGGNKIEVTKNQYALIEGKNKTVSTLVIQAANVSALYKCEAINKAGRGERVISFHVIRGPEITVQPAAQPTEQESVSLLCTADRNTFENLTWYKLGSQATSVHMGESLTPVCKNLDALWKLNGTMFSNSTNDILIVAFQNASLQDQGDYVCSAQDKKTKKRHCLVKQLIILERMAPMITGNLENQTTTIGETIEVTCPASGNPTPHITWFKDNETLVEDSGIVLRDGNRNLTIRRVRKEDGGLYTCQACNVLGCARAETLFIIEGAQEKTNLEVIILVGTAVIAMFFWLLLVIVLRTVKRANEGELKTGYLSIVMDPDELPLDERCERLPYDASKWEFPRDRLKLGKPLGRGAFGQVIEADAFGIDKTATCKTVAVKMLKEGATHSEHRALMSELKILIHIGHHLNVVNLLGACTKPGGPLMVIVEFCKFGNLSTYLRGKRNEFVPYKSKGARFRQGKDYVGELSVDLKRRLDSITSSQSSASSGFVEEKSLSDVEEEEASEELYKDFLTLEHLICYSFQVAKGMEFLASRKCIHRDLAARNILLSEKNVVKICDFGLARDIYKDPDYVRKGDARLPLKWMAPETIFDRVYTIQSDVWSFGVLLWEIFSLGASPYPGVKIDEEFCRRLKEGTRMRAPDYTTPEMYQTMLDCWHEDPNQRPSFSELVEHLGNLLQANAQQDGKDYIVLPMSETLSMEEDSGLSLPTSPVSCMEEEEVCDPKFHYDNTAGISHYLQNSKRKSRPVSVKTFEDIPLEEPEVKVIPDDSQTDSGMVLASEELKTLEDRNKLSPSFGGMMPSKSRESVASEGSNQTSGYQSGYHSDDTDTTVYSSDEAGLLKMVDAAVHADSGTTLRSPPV
# TEST: ELISA assay measuring the kinase activity of the FLK-1 receptor in cells engineered to express FLK-1
# PARTICULARS: NIH3T3 C7#3 FLK-1 expressing cells, VEGF stimulation, phosphotyrosine ELISA
ENDPOINT: pIC50
Answers are plain numbers, as −log10 of the molar value.

Solved cases (7 shown):
>  <CHEM_SMILES>
O=C(O)CCc1c(/C=C2\C(=O)Nc3ncccc32)[nH]c2c1CCCC2

>  <MEASURED_ON>
FLK-1 receptor (Mus musculus, UniProt P35918)

>  <pIC50>
6.85

$$$$
>  <CHEM_SMILES>
CN(C)C(=O)CCc1c(C=C2C(=O)Nc3ccccc32)[nH]c2c1CCCC2

>  <MEASURED_ON>
FLK-1 receptor (Mus musculus, UniProt P35918)

>  <pIC50>
6.30

$$$$
>  <CHEM_SMILES>
O=C(CCc1c(C=C2C(=O)Nc3ccccc32)[nH]c2c1CCCC2)NCCN1CCOCC1

>  <MEASURED_ON>
FLK-1 receptor (Mus musculus, UniProt P35918)

>  <pIC50>
6.20

$$$$
>  <CHEM_SMILES>
CN(C)CCCc1c(C=C2C(=O)Nc3ccccc32)[nH]c2c1CCCC2

>  <MEASURED_ON>
FLK-1 receptor (Mus musculus, UniProt P35918)

>  <pIC50>
5.13

$$$$
>  <CHEM_SMILES>
COc1ccc2c(c1)NC(=O)C2=Cc1[nH]c2c(c1CCC(=O)O)CCCC2

>  <MEASURED_ON>
FLK-1 receptor (Mus musculus, UniProt P35918)

>  <pIC50>
6.09

$$$$
>  <CHEM_SMILES>
O=C(O)CCc1c(C=C2C(=O)Nc3ccccc32)[nH]c2c1CCCC2

>  <MEASURED_ON>
FLK-1 receptor (Mus musculus, UniProt P35918)

>  <pIC50>
7.21

$$$$
>  <CHEM_SMILES>
Cc1c[nH]c(C=C2C(=O)Nc3cccc(C)c32)c1CCC(=O)O

>  <MEASURED_ON>
FLK-1 receptor (Mus musculus, UniProt P35918)

>  <pIC50>
6.70

$$$$

Noted for COc1ccccc1-c1ccc2c(c1)NC(=O)C2=Cc1[nH]c2c(c1CCC(=O)O)CCCC2 : its pIC50 reads 5.57
